# measured on: EGFR (Homo sapiens, UniProt P00533)
# Construct: purchased DiscoverX (KINOMEscan)
# Sequence (P00533 25-1210): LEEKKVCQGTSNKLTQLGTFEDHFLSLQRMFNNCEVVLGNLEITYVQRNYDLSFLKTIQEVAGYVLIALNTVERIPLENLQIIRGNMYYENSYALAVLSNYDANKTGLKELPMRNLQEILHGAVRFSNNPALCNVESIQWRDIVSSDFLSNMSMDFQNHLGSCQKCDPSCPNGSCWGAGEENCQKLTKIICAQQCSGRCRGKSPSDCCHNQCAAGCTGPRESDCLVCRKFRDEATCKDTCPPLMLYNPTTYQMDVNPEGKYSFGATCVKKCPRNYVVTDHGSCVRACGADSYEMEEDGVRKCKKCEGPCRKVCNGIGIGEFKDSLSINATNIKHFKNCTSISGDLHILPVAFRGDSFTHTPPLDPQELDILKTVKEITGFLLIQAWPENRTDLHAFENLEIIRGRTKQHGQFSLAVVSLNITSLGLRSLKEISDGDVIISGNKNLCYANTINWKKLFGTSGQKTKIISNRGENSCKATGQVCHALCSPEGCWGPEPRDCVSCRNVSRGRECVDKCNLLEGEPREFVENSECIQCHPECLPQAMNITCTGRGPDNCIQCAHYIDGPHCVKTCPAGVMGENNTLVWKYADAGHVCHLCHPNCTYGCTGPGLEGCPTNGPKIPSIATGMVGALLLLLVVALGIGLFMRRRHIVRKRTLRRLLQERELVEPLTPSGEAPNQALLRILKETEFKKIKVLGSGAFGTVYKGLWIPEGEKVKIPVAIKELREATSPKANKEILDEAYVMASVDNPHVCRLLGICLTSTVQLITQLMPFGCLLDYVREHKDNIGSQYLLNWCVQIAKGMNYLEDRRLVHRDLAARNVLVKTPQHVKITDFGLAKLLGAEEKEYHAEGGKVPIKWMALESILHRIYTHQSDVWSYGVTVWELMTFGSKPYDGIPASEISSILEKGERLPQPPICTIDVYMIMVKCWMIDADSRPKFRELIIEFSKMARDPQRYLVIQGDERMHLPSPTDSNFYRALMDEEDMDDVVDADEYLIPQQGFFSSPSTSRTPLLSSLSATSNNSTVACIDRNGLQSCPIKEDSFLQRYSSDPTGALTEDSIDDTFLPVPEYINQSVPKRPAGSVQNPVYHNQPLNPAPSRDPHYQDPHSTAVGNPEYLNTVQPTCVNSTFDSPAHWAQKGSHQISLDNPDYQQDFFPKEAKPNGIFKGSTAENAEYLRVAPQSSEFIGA
# procedure text: KINOMEscan competitive binding
# details: 10 µM, n=1; kinase EGFR; read-out: Percent inhibition EGFR

molecule	measured on	display unit	inhibition at 10 µM
C[C@@H](Oc1cc(-c2cnc3ccccn23)sc1C(N)=O)c1ccccc1Cl [Compound 8]	EGFR (Homo sapiens, UniProt P00533)	%	0
c1ccc(COc2cccc(-c3ccnc4[nH]ccc34)c2)cc1 [Compound 9]	EGFR (Homo sapiens, UniProt P00533)	%	0
CN1CCN(c2ccc(Nc3nccc(-c4cnn5ncccc45)n3)cc2C#N)CC1 [Compound 1]	EGFR (Homo sapiens, UniProt P00533)	%	0
COc1cc(Nc2nccc(-c3sc(N)nc3-c3cccc(NC(=O)c4c(F)cccc4F)c3)n2)cc(OC)c1OC [Compound 7]	EGFR (Homo sapiens, UniProt P00533)	%	100
COc1ccc(Nc2nccc(-c3cnn4ncccc34)n2)cc1 [Compound 2]	EGFR (Homo sapiens, UniProt P00533)	%	0
